- System: HEL cells
- assay-conditions: anti-VZV table
Entries and their MTC (HEL) values follow.

compound	MTC (HEL)
CCCCCCCCCCNC1(C)CC(OC2C(Oc3c4cc5cc3Oc3ccc(cc3Cl)C(O)C(NC(=O)C(CC(C)C)NC)C(=O)NC(CC(N)=O)C(=O)NC5C(=O)NC3C(=O)NC(C(=O)NC(C(=O)O)c5cc(O)cc(O)c5-c5cc3ccc5O)C(OC3CC(C)(N)C(O)C(C)O3)c3ccc(cc3)O4)OC(CO)C(O)C2O)OC(C)C1O (stereo not shown) [Compound 68]	5 to 50 µM

Read the next record carefully.
Query: Indicate the recorded MTC (HEL) value for this compound: COC(=O)C1NC(=O)C2NC(=O)C(NC(=O)C(N)c3cc(Oc4ccc(CC(NC(=O)OCc5ccccc5)C(=O)O)cc4Cl)c(O)c(c3)Oc3ccc(cc3Cl)C2O)c2ccc(O)c(c2)-c2c(O)cc(O)cc21 (stereo not shown) [Compound 169]
Reply: >200 µM
